# TARGET ENTITY: PCSK9 (Homo sapiens, UniProt Q8NBP7, G670E/V474I)
# Sequence (Q8NBP7 with tags, fused parts or gaps V474I/G670E): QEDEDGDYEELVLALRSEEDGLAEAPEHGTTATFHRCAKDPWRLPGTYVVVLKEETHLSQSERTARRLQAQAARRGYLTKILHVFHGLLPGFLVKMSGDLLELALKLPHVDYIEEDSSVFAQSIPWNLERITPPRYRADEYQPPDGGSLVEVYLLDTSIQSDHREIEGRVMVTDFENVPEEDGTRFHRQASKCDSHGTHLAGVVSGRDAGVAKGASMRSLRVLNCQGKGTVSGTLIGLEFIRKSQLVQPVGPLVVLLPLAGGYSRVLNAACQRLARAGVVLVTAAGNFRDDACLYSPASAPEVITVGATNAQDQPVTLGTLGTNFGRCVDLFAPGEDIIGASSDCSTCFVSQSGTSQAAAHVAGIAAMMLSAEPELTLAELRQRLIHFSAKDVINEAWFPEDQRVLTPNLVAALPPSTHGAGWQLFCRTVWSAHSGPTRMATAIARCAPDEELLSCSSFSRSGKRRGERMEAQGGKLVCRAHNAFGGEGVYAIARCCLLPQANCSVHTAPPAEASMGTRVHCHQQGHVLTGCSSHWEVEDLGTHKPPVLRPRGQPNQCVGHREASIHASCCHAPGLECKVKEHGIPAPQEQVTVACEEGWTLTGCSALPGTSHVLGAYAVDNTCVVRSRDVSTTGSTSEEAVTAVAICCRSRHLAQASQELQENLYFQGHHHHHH
# ASSAY DETAILS: biochemical
Listing: pIC50 of selected compounds
Note on pIC50: it is the negative log10 of concentration, concentration in mol/L.

Example entries begin here.
>  <COMPOUND>
N#Cc1ccc2nc(N[C@H]3CC[C@H](Nc4ccc(-n5ccccc5=O)cn4)C3)oc2c1 [Example 5]

>  <pIC50>
8.05

$$$$
>  <COMPOUND>
O=c1ccc(Cl)cn1-c1ccc(N[C@H]2CC[C@H](Nc3nc4cccnc4o3)C2)nc1 [Example 13]

>  <pIC50>
7.88

$$$$
>  <COMPOUND>
O=c1ccccn1-c1ccc(N[C@H]2CC[C@H](Nc3nc4ccc(Br)cc4o3)C2)nc1 [Example 3]

>  <pIC50>
8.09

$$$$
>  <COMPOUND>
Cn1cccc(-c2cnc(N[C@H]3CC[C@H](Nc4nc5cccnc5[nH]4)C3)cn2)c1=O [Example 75]

>  <pIC50>
7.77

$$$$
>  <COMPOUND>
O=C1CN(c2ccc(N[C@H]3CC[C@H](Nc4nc5cccnc5[nH]4)C3)nc2)C(=O)N1 [Example 65]

>  <pIC50>
8.11

$$$$

Pending compound:
Lookup: Indicate the recorded pIC50 value for this compound: Cn1cccc(-c2cnc(N[C@H]3CC[C@H](Nc4nc5cccnc5[nH]4)C3)nc2)c1=O [Example 39]
Found: 8.21
